assay: Identification of proteins required for the processing of the EWS-FLI1 nascent transcript; settings: TC32 Ewing sarcoma NR0B1-luc vs CMV-luc (EWS-FLI1 target promoter against control promoter), 48 h; screened at 20 nM (by protocol);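 further: robust z of luciferase light less the median z of siRNAs with the same seed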
In all, about 59,000 sequences were measured (the read-out: median about -0.00055, lowest 2% from about -2 on). The entries come from a sample that favours the lowest values as a whole.
Decision: seed-corrected z-score >= 0.1 yields 1 (yes), all other cases yield 0 (no).

As a guide, the following entries are already answered.
> print(dat)
                        sequence.string  label.value
1  UUAAGAUUGACCUUUCUCC against KIAA1755       0 (no)
2     UCUUAUUGAAAAUCUCAGC against NR1H4      1 (yes)
3     UAAAGAUGCAGAUAAUAAC against NMUR1      1 (yes)

Please turn your attention to the following entry.
[ask] Is it the case that UCACUUACAAAGCUCAGAG against LUZP1 has seed-corrected z-score reaching or exceeding 0.1?
[reply] 0 (no)

Hello, the source for this data is PubChem BioAssay AID1159506, in case you need it.
